Target: T1, PUF4 RNA-binding domain (Saccharomyces cerevisiae, UniProt P25339 537-888)
T1 sequence: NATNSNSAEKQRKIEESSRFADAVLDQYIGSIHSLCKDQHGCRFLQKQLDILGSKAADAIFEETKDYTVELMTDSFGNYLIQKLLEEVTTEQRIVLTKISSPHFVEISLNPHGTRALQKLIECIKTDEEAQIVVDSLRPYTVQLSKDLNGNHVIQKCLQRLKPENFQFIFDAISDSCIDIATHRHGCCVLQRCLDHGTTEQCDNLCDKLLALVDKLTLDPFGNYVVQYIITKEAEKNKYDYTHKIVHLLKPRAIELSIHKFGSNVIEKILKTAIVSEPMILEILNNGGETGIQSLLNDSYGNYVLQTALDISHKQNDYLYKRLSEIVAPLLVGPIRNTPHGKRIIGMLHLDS
Test: Mg; RNA-MaP; 20 mM Na-HEPES pH 7.4, 30 mM KOAc, 0.75 mM MgCl2, 0.1% Tween-20, 5% glycerol, 0.1 mg/mL BSA, 2 mM DTT; 25 C; 0.0125-409.6 nM protein
Details: tags: N-His6-TEV cleaved; C-SNAP kept, Cy3B-labelled; label: tethered on chip by stalled RNA polymerase
pKd: −log10 of the molar value.
Rule: 1 for pKd not less than 7, -1 for anything less.

Observe how each entry below is paired with its result.
{"columns": ["BINDER", "GROUP LABEL"],
 "data": [
  ["UCUCUUGCUAUAUUAUUACGUCUCUU (ssRNA) [Id_ii_S1_P5E.3_K5.2_C5.2_[C-2G]_[T-1C]_H5.2_A5.1_F5.1_T5.2_[T11C]_[A12G]]", -1],
  ["Ie_S2_P3E.2_K3.1_C3.2_H3.1_A3.1_F3.1_[+8TTCC]_T3.2 (ssRNA) RNA: UUUGAUUAAUAUGAUAUCGUUCUUUCUCUUGUAUAUAUUCCUAUUCUUUCUCGAUAUCAUAUUAAUCUUU", 1],
  ["Ib_S4_P3E.1_K3.1_C3.1_H3.1_[A4C]_A3.1_[A6C]_F3.1_T3.1 (ssRNA) RNA: UUUGACAACUGAUCGUUCUUUCUUGUCUCUAUUCUUUCUCGAUCAGUUGUCUUU", -1],
  ["Ic_S2_P4E.1_K4.1_C4.1_H4.1_A4.1_[T5G]_[A6T]_[T7C]_F4.1_[T8C]_T4.1 (ssRNA) RNA: UUUGAUUAAUAUGAUAUCGUUCUUUCUUGUAGUCCAUUCUUUCUCGAUAUCAUAUUAAUCUUU", -1]
]}

Test whether the binder UCUCUUGGUAUAUUUCUCUU (ssRNA) [Ib_S1_P3E.1_K3.1_C3.1_H3.1_[T1G]_A3.1_F3.1_[A8T]_T3.1] records pKd of 7 or higher.
-1
